Just for reference, patent US20130219529A1 is where these values come from.

MEASUREMENT_NOTES: Excitation and fluorescence emission wavelength measured with fluorescence spectrophotometer
Format: physicochemical
CONDITION_PARAMETERS: aqueous solution, 10 mg/mL DMSO solution diluted 500-fold with purified water
Recorded Excitation wavelength λex by entry
MEASUREMENT_LABEL: Excitation wavelength λex

INSERT INTO results (compound, obs_value) VALUES
  ('CC(=C\c1oc2ccccc2[n+]1CCC(=O)O)/C=C1/Oc2ccccc2N1CCC(=O)O', '429 nm'),
  ('CCC(=C\c1sc2c3ccccc3ccc2[n+]1CC)/C=C1/Sc2c(ccc3ccccc23)N1CC', '344 nm'),
  ('O=C(O)C[n+]1c(/C=C/c2ccc3c(c2)C2CCCC2N3Cc2ccccc2)sc2ccccc21 (stereo not shown)', '566 nm'),
  ('CCN1/C(=C\C(C)=C\c2sc3ccccc3[n+]2CC)Sc2ccccc21', '560 nm'),
  ('O=C(O)C[n+]1c(/C=C/c2ccc3c(c2)C2CCCC2N3c2ccc(C=C(c3ccccc3)c3ccccc3)cc2)oc2ccccc21 (stereo not shown)', '570 nm'),
  ('CCCCN(CCCC)c1ccc(/C=C/c2cc[n+](CCC[N+](CC)(CC)CC)cc2)cc1.[Br-].[Br-] [FM1-43, reference compound]', '503 nm'),
  ('CCCC/N=c1/ccc2c(-c3ccccc3S(=O)(=O)O)c3ccc(NCCCC)cc3oc-2c1', '490 nm'),
  ('CCN1/C(=C\C(C)=C\c2sc3c4ccccc4ccc3[n+]2CC)Sc2c1ccc1ccccc21', '354 nm'),
  ('CC/N=c1\cc2oc3cc(NCC)c(C)cc3c(-c3ccccc3C(=O)OCC)c-2cc1C', '528 nm'),
  ('CC1(C)C(/C=C/C=C/C=C/C=C2\N(CCCCS(=O)(=O)O)c3ccc4ccccc4c3C2(C)C)=[N+](CCCCS(=O)(=O)[O-])c2ccc3ccccc3c21 [ICG, indocyanine green, reference compound]', '784 nm');

----------
Recorded Excitation wavelength λex by entry
MEASUREMENT_NOTES: Excitation and fluorescence emission wavelength measured with fluorescence spectrophotometer
Type: physicochemical
CONDITION_PARAMETERS: aqueous solution, 10 mg/mL DMSO solution diluted 500-fold with purified water
MEASUREMENT_LABEL: Excitation wavelength λex (nm)

INSERT INTO assay_data (compound, scale_unit, obs_value) VALUES
  ('CC1(C)C(/C=C/c2ccc3c(c2)C2CCCC2N3c2ccc(C=C(c3ccccc3)c3ccccc3)cc2)=[N+](CCC(=O)O)c2ccccc21 (stereo not shown)', 'nm', 611),
  ('CCN1C=C/C(=C/C=C/c2oc3ccccc3[n+]2CC)c2ccccc21', 'nm', 571),
  ('COc1ccc(N2c3ccc(/C=C/c4sc5ccccc5[n+]4CC(=O)O)cc3C3CCCC32)cc1 (stereo not shown)', 'nm', 560),
  ('CCC(=C\c1sc2ccccc2[n+]1CC)/C=C1/Sc2ccccc2N1CC', 'nm', 563);

----------
MEASUREMENT_NOTES: Excitation and fluorescence emission wavelength measured with fluorescence spectrophotometer
Assay type: physicochemical
CONDITION_PARAMETERS: aqueous solution, 10 mg/mL DMSO solution diluted 500-fold with purified water
Recorded Fluorescence emission wavelength λem by entry
MEASUREMENT_LABEL: Fluorescence emission wavelength λem (nm)

INSERT INTO measurements (compound, measurement_label, obs_value) VALUES
  ('CCC(=C\c1oc2ccc(-c3ccccc3)cc2[n+]1CC)/C=C1/Oc2ccc(-c3ccccc3)cc2N1CC [compound 16]', 'Fluorescence emission wavelength λem', 564),
  ('CCN1C=C/C(=C/C=C/c2oc3ccccc3[n+]2CC)c2ccccc21 [compound 50]', 'Fluorescence emission wavelength λem', 620),
  ('CN1/C(=C/C=C/C=C/C=C/C2=[N+](C)c3ccccc3C2(C)C)C(C)(C)c2ccccc21 [compound 68]', 'Fluorescence emission wavelength λem', 760),
  ('CC[n+]1ccccc1C=Cc1ccc(N(C)C)cc1.[I-] [DASPEI, reference compound]', 'Fluorescence emission wavelength λem', 589),
  ('CC/N=c1\cc2oc3cc(NCC)c(C)cc3c(-c3ccccc3C(=O)OCC)c-2cc1C [compound 54]', 'Fluorescence emission wavelength λem', 550),
  ('CC(=C\c1oc2ccccc2[n+]1CCC(=O)O)/C=C1/Oc2ccccc2N1CCC(=O)O [compound 28]', 'Fluorescence emission wavelength λem', 503),
  ('O=S(=O)(O)c1ccccc1-c1c2cc/c(=N/CCO)cc-2oc2cc(NCCO)ccc12 [compound 58]', 'Fluorescence emission wavelength λem', 509);

----------
MEASUREMENT_NOTES: Excitation and fluorescence emission wavelength measured with fluorescence spectrophotometer
Type: physicochemical
CONDITION_PARAMETERS: aqueous solution, 10 mg/mL DMSO solution diluted 500-fold with purified water
I'd appreciate it if you could label each record using Fluorescence emission wavelength λem and these ranges: category 1 (below 600 nm), category 2 (600 nm to below 700 nm), category 3 (700 nm or more)

INSERT INTO measurements (compound, class_label) VALUES
  ('CC1(C)C(/C=C/C=C/C=C/C=C2\N(CCCCS(=O)(=O)O)c3ccc4ccccc4c3C2(C)C)=[N+](CCCCS(=O)(=O)[O-])c2ccc3ccccc3c21 [ICG, indocyanine green, reference compound]', 'category 3'),
  ('CN1/C(=C\C=C\C2=[N+](C)c3ccccc3C2(C)C)C(C)(C)c2ccccc21', 'category 1'),
  ('CCC(=C\c1sc2c3ccccc3ccc2[n+]1CC)/C=C1/Sc2c(ccc3ccccc23)N1CC', 'category 1'),
  ('CCN1/C(=C/C=C/C=C/C=C/C2=[N+](CC)c3ccccc3C23CCCCC3)C2(CCCCC2)c2ccccc21', 'category 3'),
  ('COc1ccc(N2c3ccc(/C=C/c4sc5ccccc5[n+]4CC(=O)O)cc3C3CCCC32)cc1 (centres unmarked)', 'category 2'),
  ('CCCC/N=c1/ccc2c(-c3ccccc3S(=O)(=O)O)c3ccc(NCCCC)cc3oc-2c1', 'category 1'),
  ('O=C(O)C[n+]1c(/C=C/c2ccc3c(c2)C2CCCC2N3c2ccc(C=C(c3ccccc3)c3ccccc3)cc2)oc2ccccc21 (centres unmarked)', 'category 2'),
  ('CCN1/C(=C\C(C)=C\c2sc3c4ccccc4ccc3[n+]2CC)Sc2c1ccc1ccccc21', 'category 1'),
  ('COc1ccc2cc(N3c4ccc(/C=C/c5sc6ccccc6[n+]5CC(=O)O)cc4C4CCCC43)ccc2c1 (centres unmarked)', 'category 1'),
  ('O=C(O)C[n+]1c(/C=C/c2ccc3c(c2)C2CCCC2N3c2ccccc2)sc2ccccc21 (centres unmarked)', 'category 2'),
  ('CCC(=C\c1sc2ccccc2[n+]1CC)/C=C1/Sc2ccccc2N1CC', 'category 1');

----------
MEASUREMENT_NOTES: Excitation and fluorescence emission wavelength measured with fluorescence spectrophotometer
Format: physicochemical
CONDITION_PARAMETERS: aqueous solution, 10 mg/mL DMSO solution diluted 500-fold with purified water
Each entry gets 0 (no) if its Fluorescence emission wavelength λem stays under 600 nm, and 1 (yes) if its Fluorescence emission wavelength λem is 600 nm or above.

INSERT INTO assay_data (compound, class_label) VALUES
  ('O=S(=O)(O)CCN1/C(=C\C=C\c2oc3ccc(-c4ccccc4)cc3[n+]2CCS(=O)(=O)O)Oc2ccc(-c3ccccc3)cc21 [compound 25]', '0 (no)'),
  ('CCN1/C(=C\C(C)=C\c2sc3ccccc3[n+]2CC)Sc2ccccc21 [compound 45]', '1 (yes)'),
  ('COc1ccc(N2c3ccc(/C=C/C4=[N+](C)c5ccccc5C4(C)C)cc3C3CCCC32)cc1 (stereo not shown) [compound 53]', '1 (yes)'),
  ('CCCCN(CCCC)c1ccc(/C=C/c2cc[n+](CCC[N+](CC)(CC)CC)cc2)cc1.[Br-].[Br-] [FM1-43, reference compound]', '1 (yes)'),
  ('CCC[N+](CCC)=c1ccc2c(-c3ccccc3S(=O)(=O)O)c3ccc(Nc4c(C)cccc4C)cc3oc-2c1.[Na+] [compound 60]', '0 (no)');

----------
MEASUREMENT_NOTES: Excitation and fluorescence emission wavelength measured with fluorescence spectrophotometer
Assay type: physicochemical
CONDITION_PARAMETERS: aqueous solution, 10 mg/mL DMSO solution diluted 500-fold with purified water
MEASUREMENT_LABEL: Excitation wavelength λex (nm)

INSERT INTO measurements (molecule, measurement_label, obs_value) VALUES
  ('CCN1C=C/C(=C\C=c2\s/c(=C/c3sc4ccccc4[n+]3CC)n(CC)c2=O)c2ccccc21', 'Excitation wavelength λex', 660),
  ('O=S(=O)(O)c1ccccc1-c1c2cc/c(=N/CCO)cc-2oc2cc(NCCO)ccc12', 'Excitation wavelength λex', 480),
  ('COc1ccc(N2c3ccc(/C=C/C4=[N+](C)c5ccccc5C4(C)C)cc3C3CCCC32)cc1 (stereo not shown)', 'Excitation wavelength λex', 614),
  ('CN1/C(=C/C=C/C=C/C=C/C2=[N+](C)c3ccccc3C2(C)C)C(C)(C)c2ccccc21', 'Excitation wavelength λex', 730),
  ('CN1\C(=C/C=C/C=C/C2=[N+](C)c3ccc4ccccc4c3C2(C)C)C(C)(C)c2c1ccc1ccccc21', 'Excitation wavelength λex', 670),
  ('CN1/C(=C\C=C\C2=[N+](C)c3ccccc3C2(C)C)C(C)(C)c2ccccc21', 'Excitation wavelength λex', 473),
  ('CCCCNS(=O)(=O)c1ccc(-c2c3ccc(=[N+](CC)CC)cc-3oc3cc(N(CC)CC)ccc23)c(S(=O)(=O)O)c1.[Na+]', 'Excitation wavelength λex', 570);
